tested on: OVCAR-8; test: NCI tumour cell line growth inhibition, 48 h
Active and inactive are the calls of the source. Cut-off read from the data, not from the text of the source: active = GI50 up to about 1.1 µM and inactive = higher.
measurement_kind: GI50

INPUT: Given the compound CC(C)(C)c1cc2c(O)c(c1)Cc1cc(C(C#N)(Cc3ccc4ccccc4c3)Cc3ccc4ccccc4c3)cc(c1O)Cc1cc(C(C)(C)C)cc(c1O)Cc1cc(C(C#N)(Cc3ccc4ccccc4c3)Cc3ccc4ccccc4c3)cc(c1O)C2 , write its reported GI50.
OUTPUT: > 100 µM (inactive)

INPUT: Provide GI50 value for the following compound: CC1=C2C3OC(=O)C(C)C3C(O)C[C@@]2(C)C(=O)CC1 (some centres undefined)
OUTPUT: > 100 µM (inactive)

INPUT: Please give measured GI50 of the following entry: CC[C@@H]1CN(C)[C@H]2Cc3c([nH]c4ccccc34)C(=O)C[C@H]1C2C(=O)OC (some centres undefined)
OUTPUT: > 100 µM (inactive)

INPUT: Give reported GI50 value for CSC1NC(c2ccc(Cl)cc2)=C(C#N)C(=O)N1C1OCC(OC(C)=O)C(OC(C)=O)C1OC(C)=O (centres undefined)
OUTPUT: > 100 µM (inactive)

INPUT: Find the measured GI50 of CC(=O)Nc1ccc(-c2nnc(SCC(=O)Nc3cccc(C)c3)o2)cc1 and report it.
OUTPUT: 16.3 µM (inactive)

INPUT: In one line, give reported GI50 of the entry S=C1/C(=N/c2ccccc2)N(c2ccccc2)/C(=N\c2ccccn2)N1c1ccccc1 .
OUTPUT: 14.5 µM (inactive)

INPUT: Give the reported value of GI50 for this record: Cc1cc(C)c(C(=O)/C=C/c2ccccc2)c(C)c1
OUTPUT: 15.5 µM (inactive)

INPUT: Quickly give me recorded GI50 for CCN(CC)c1ccc2cc(C(=O)Nc3nc(C45CC6CC(CC(C6)C4)C5)cs3)c(=O)oc2c1
OUTPUT: > 100 µM (inactive)

INPUT: For the compound CO[C@H](C(=O)O[C@H]1C(=O)N2CCC3CCC1C32C)c1ccccc1 (some centres undefined) , give its measured GI50 value.
OUTPUT: > 100 µM (inactive)

----------
Kindly state GI50 for each of the entries shown.
system: SK-MEL-2; assay: NCI tumour cell line growth inhibition, 48 h
Active and inactive are the calls of the source. Cut-off read from the data, not from the text of the source: active = GI50 up to about 1.1 µM and inactive = higher.

INPUT: # return GI50 of CONC(C)=O (system: SK-MEL-2)
OUTPUT: > 100 µM (inactive)

INPUT: Give GI50 only, for C[n+]1c2ccccc2c(/C=N\NS(=O)(=O)c2ccc(Cl)cc2)c2ccccc21 , using SK-MEL-2 data.
OUTPUT: 46.7 µM (inactive)

INPUT: Enter recorded GI50 with SK-MEL-2 for O=C1/C(=C/c2ccccc2)CCC/C1=C\c1ccccc1 [2,6-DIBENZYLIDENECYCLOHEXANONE] here.
OUTPUT: 16.7 µM (inactive)

INPUT: # return GI50 of C[C@]12CC[C@H](O[C@@H]3O[C@H](CO[C@@H]4O[C@H](CO)[C@@H](O)[C@H](O)[C@H]4O)[C@@H](O)[C@H](O)[C@H]3O)C[C@@H]1CC[C@@H]1[C@@H]2CC[C@]2(C)[C@@H](C3=CC(=O)OC3)CC[C@]12O [UZARIN] (system: SK-MEL-2)
OUTPUT: 36.4 µM (inactive)

INPUT: Name the value of GI50 reported for Cc1ccc(Nc2nnc(-c3ccc4c(c3)OCO4)o2)c(C)c1 when tested on SK-MEL-2.
OUTPUT: > 100 µM (inactive)

INPUT: Return reported GI50 for target or system SK-MEL-2, item Cc1ncc([N+](=O)[O-])n1CC[N+](C)([O-])CCCCn1ccnc1[N+](=O)[O-] (stereo not drawn) .
OUTPUT: > 100 µM (inactive)

INPUT: Please report the measured GI50 for CCOC(=O)c1ccc(C(=O)C(C(C)=O)C(=O)OC(C)(C)C)[nH]1 (stereo not drawn) tested on SK-MEL-2.
OUTPUT: > 100 µM (inactive)

INPUT: GET GI50 | system: SK-MEL-2 | item: CO[C@H](C(=O)O[C@H]1C(=O)N2CCC3CCC1C32C)c1ccccc1 (stereo partly drawn)
OUTPUT: > 100 µM (inactive)
